System: Escherichia coli TOP10
Experiment notes: shrunken log2 fold change of peptide-encoding DNA abundance (4.5 h post-induction vs induction); higher = less antimicrobial activity (less host growth inhibition)
Conditions: time post-induction: 4.5 h; library: site-saturation at positions 5, 18, 19, 20
Think of -0.03 as a floor: if shrunken log2 fold change stands on it or above, it is criterion met; beneath it, criterion not met.

sequence_data=RRIRCRPPRLPRPRPRPVGHPRP cat="criterion met"
sequence_data=RRIRHRPPRLPRPRPRPALDPRP cat="criterion not met"
sequence_data=RRIRWRPPRLPRPRPRPMDDPRP cat="criterion not met"
sequence_data=RRIRMRPPRLPRPRPRPVWEPRP cat="criterion met"
sequence_data=RRIRHRPPRLPRPRPRPGPPPRP cat="criterion met"
sequence_data=RRIRSRPPRLPRPRPRPDWKPRP cat="criterion not met"
sequence_data=RRIRPRPPRLPRPRPRPLHGPRP cat="criterion met"
sequence_data=RRIRCRPPRLPRPRPRPCEQPRP cat="criterion not met"

Let us examine a further case.
Req: Check this sequence for shrunken log2 fold change at or above -0.03: `RRIRKRPPRLPRPRPRPERAPRP`
Resp: criterion met

---

System: Escherichia coli TOP10
Experiment notes: shrunken log2 fold change of peptide-encoding DNA abundance (4.5 h post-induction vs induction); higher = less antimicrobial activity (less host growth inhibition)
Conditions: time post-induction: 4.5 h; library: site-saturation at positions 5, 18, 19, 20
Each record's class is read off its shrunken log2 fold change using these ranges: 1: < -0.1; 2: ≥ -0.1 and < 0.06; 3: ≥ 0.06

Please review the following examples before continuing.
sequence_data=RRIRVRPPRLPRPRPRPMHAPRP cat=2
sequence_data=RRIRERPPRLPRPRPRPLKAPRP cat=3
sequence_data=RRIRARPPRLPRPRPRPIQWPRP cat=3
sequence_data=RRIRLRPPRLPRPRPRPGQIPRP cat=3
sequence_data=RRIRERPPRLPRPRPRPAGKPRP cat=2

Req: Which class holds `RRIRERPPRLPRPRPRPDTAPRP` ?
Resp: 1

Req: Using the reported shrunken log2 fold change, which band applies to `RRIRTRPPRLPRPRPRPQNTPRP` ?
Resp: 1

Req: For `RRIRFRPPRLPRPRPRPQINPRP` , which shrunken log2 fold change bin applies?
Resp: 1

Req: // bin(item) where item = `RRIRYRPPRLPRPRPRPSFQPRP`
Resp: 1

Req: Hello team, could you let me know which band the following sequence falls into: `RRIRGRPPRLPRPRPRPGIYPRP`
Resp: 3

Req: Where would `RRIRIRPPRLPRPRPRPLEKPRP` land among the classes by reported shrunken log2 fold change?
Resp: 2

Req: GET /class?item= `RRIRNRPPRLPRPRPRPCRTPRP`
Resp: 1

Req: Band assignment needed for `RRIRGRPPRLPRPRPRPCSSPRP` please.
Resp: 1

Req: Class? Entry: `RRIRRRPPRLPRPRPRPNMDPRP`
Resp: 1

Req: Band for `RRIRYRPPRLPRPRPRPVQIPRP` ?
Resp: 1

Req: Sort into band: `RRIRLRPPRLPRPRPRPEWKPRP`
Resp: 1

Req: State the band of `RRIRHRPPRLPRPRPRPRPIPRP`
Resp: 3

Req: Band for `RRIRVRPPRLPRPRPRPIPMPRP` ?
Resp: 2

Req: Entry `RRIRYRPPRLPRPRPRPKHQPRP` belongs to which category?
Resp: 1

---

Test system: Escherichia coli TOP10
Experiment notes: shrunken log2 fold change of peptide-encoding DNA abundance (4.5 h post-induction vs induction); higher = less antimicrobial activity (less host growth inhibition)
Conditions: time post-induction: 4.5 h; library: site-saturation at positions 5, 18, 19, 20
Decide using shrunken log2 fold change: a value greater than or equal to -0.02 is Criterion met, a smaller one is Criterion not met.

Before answering, review these 2 worked examples.
sequence_data=RRIRPRPPRLPRPRPRPKAQPRP system_tested="Escherichia coli TOP10" cat="Criterion not met"
sequence_data=RRIRPRPPRLPRPRPRPGCQPRP system_tested="Escherichia coli TOP10" cat="Criterion not met"

Req: Determine whether measured shrunken log2 fold change meets or exceeds -0.02 for `RRIRFRPPRLPRPRPRPHYQPRP`
Resp: Criterion met

Req: Check this sequence for shrunken log2 fold change at or above -0.02: `RRIRWRPPRLPRPRPRPHVHPRP`
Resp: Criterion not met

Req: Reported shrunken log2 fold change reaches at least -0.02 for `RRIRARPPRLPRPRPRPSGCPRP` ?
Resp: Criterion met

Req: Decide: is the reported value of shrunken log2 fold change for `RRIRIRPPRLPRPRPRPYAQPRP` equal to or greater than -0.02?
Resp: Criterion not met

---

So I've got a bunch of sequences here, and I need their shrunken log2 fold change values.
Tested on: Escherichia coli TOP10
Experiment notes: shrunken log2 fold change of peptide-encoding DNA abundance (4.5 h post-induction vs induction); higher = less antimicrobial activity (less host growth inhibition)
Conditions: time post-induction: 4.5 h; library: site-saturation at positions 5, 18, 19, 20
Answers are plain numbers.

sequence_data=RRIRFRPPRLPRPRPRPQYPPRP readout_value=0.041
sequence_data=RRIRWRPPRLPRPRPRPGGSPRP readout_value=0.341
sequence_data=RRIRMRPPRLPRPRPRPYSLPRP readout_value=-0.129
sequence_data=RRIRQRPPRLPRPRPRPAYIPRP readout_value=-0.00563
sequence_data=RRIRWRPPRLPRPRPRPLDAPRP readout_value=0.354

// each sequence listed below needs its shrunken log2 fold change
1. RRIRSRPPRLPRPRPRPRSFPRP
2. RRIRYRPPRLPRPRPRPMPFPRP
3. RRIRERPPRLPRPRPRPTARPRP
4. RRIRDRPPRLPRPRPRPYNRPRP
5. RRIRLRPPRLPRPRPRPIWAPRP

Resp:
1: 0.124; 2: 0.00489; 3: 0.258; 4: -0.361; 5: 0.136

---

System: Escherichia coli TOP10
Experiment notes: shrunken log2 fold change of peptide-encoding DNA abundance (4.5 h post-induction vs induction); higher = less antimicrobial activity (less host growth inhibition)
Conditions: time post-induction: 4.5 h; library: site-saturation at positions 5, 18, 19, 20
Assignment: determine reported shrunken log2 fold change for the given sequences.
Give bare numbers.

Consider the worked cases shown below.
sequence_data=RRIRSRPPRLPRPRPRPGGFPRP measured_quantity="shrunken log2 fold change" readout_value=0.245
sequence_data=RRIRGRPPRLPRPRPRPPAYPRP measured_quantity="shrunken log2 fold change" readout_value=0.532
sequence_data=RRIRGRPPRLPRPRPRPGPAPRP measured_quantity="shrunken log2 fold change" readout_value=1.02
sequence_data=RRIRVRPPRLPRPRPRPPTNPRP measured_quantity="shrunken log2 fold change" readout_value=1.14
sequence_data=RRIRHRPPRLPRPRPRPNNLPRP measured_quantity="shrunken log2 fold change" readout_value=-0.596
sequence_data=RRIRSRPPRLPRPRPRPGKGPRP measured_quantity="shrunken log2 fold change" readout_value=-0.0961
sequence_data=RRIRARPPRLPRPRPRPCLVPRP measured_quantity="shrunken log2 fold change" readout_value=0.0528
sequence_data=RRIRIRPPRLPRPRPRPCLDPRP measured_quantity="shrunken log2 fold change" readout_value=-0.0653

Value sought for every listed sequence: shrunken log2 fold change.
1. RRIRWRPPRLPRPRPRPRWCPRP
2. RRIRTRPPRLPRPRPRPTPWPRP
3. RRIRCRPPRLPRPRPRPCEHPRP

Resp:
[-0.00787, 0.411, -0.328]

---

Test system: Escherichia coli TOP10;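 further: peptides expressed intracellularly from a pBAD plasmid library in pooled LB shake-flask culture, induced with 0.3% L-arabinose, DNA abundance read by NGS, three biological replicates, DESeq2 with apeglm shrinkage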
Experiment notes: shrunken log2 fold change of peptide-encoding DNA abundance (4.5 h post-induction vs induction); higher = less antimicrobial activity (less host growth inhibition)
Conditions: time post-induction: 4.5 h; library: site-saturation at positions 5, 18, 19, 20
For each of the sequences below, state its shrunken log2 fold change.
Answers are plain numbers.

sequence_data=RRIRCRPPRLPRPRPRPWDSPRP readout_value=-0.36

Please go through the list and note shrunken log2 fold change for each sequence.
1. RRIRLRPPRLPRPRPRPRVRPRP
2. RRIRMRPPRLPRPRPRPYDNPRP

Resp:
1. 0.325
2. 0.213

Dear colleague, could you please provide shrunken log2 fold change for the sequences listed below?
1. RRIRKRPPRLPRPRPRPIREPRP
2. RRIRIRPPRLPRPRPRPNWRPRP
3. RRIRVRPPRLPRPRPRPEFGPRP
4. RRIRERPPRLPRPRPRPEWLPRP
5. RRIRFRPPRLPRPRPRPQKKPRP
6. RRIRSRPPRLPRPRPRPSKIPRP
7. RRIRRRPPRLPRPRPRPLLSPRP
8. RRIRARPPRLPRPRPRPLDDPRP

Resp:
1. 0.057
2. 0.0227
3. 0.177
4. -0.062
5. -0.0897
6. -0.378
7. 0.148
8. 0.875

List shrunken log2 fold change for every entry below, keeping the order given.
1. RRIRVRPPRLPRPRPRPEFNPRP
2. RRIRARPPRLPRPRPRPHRCPRP

Resp:
[0.203, 0.0993]

Batch lookup, shrunken log2 fold change per entry.
1. RRIRCRPPRLPRPRPRPEVKPRP
2. RRIRMRPPRLPRPRPRPPQNPRP
3. RRIRWRPPRLPRPRPRPICSPRP

Resp:
1. 0.149
2. 1.13
3. -0.199
